B1: EPB41L3 (parent)
chain: KKFLTLGSKFRYSGRTQAQTRRAS

variants of: B1; assay: protein stability index of a GFP-peptide fusion (GPS, HEK-293T) (PSI 1-6); higher = more stable; settings: c terminus: a fixed tail appended;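 note: lentivirally expressed fusions sorted by FACS into six bins by GFP to DsRed ratio, PSI derived from sequencing read proportions per bin multiplied by bin number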
metric-name: protein stability index
Output: the number by itself.

Enquiry: Please give measured protein stability index of the following entry: `A23N`
Return: 2.85

Enquiry: Please give measured protein stability index of the following entry: `G7F`
Return: 2.4

Enquiry: Please give measured protein stability index of the following entry: `K1F`
Return: 2.45

Enquiry: Please give measured protein stability index of the following entry: `R22A`
Return: 2.08

Enquiry: Please give measured protein stability index of the following entry: `T20F`
Return: 2.28

Enquiry: Please give measured protein stability index of the following entry: `Q17E`
Return: 2.76

Enquiry: Please give measured protein stability index of the following entry: `A18T`
Return: 3.1

Enquiry: Please give measured protein stability index of the following entry: `F10L`
Return: 4.09

Enquiry: Please give measured protein stability index of the following entry: `F10C`
Return: 3.11

Enquiry: Please give measured protein stability index of the following entry: `Q17N`
Return: 2.01

Enquiry: Please give measured protein stability index of the following entry: `G7I`
Return: 1.35

Enquiry: Please give measured protein stability index of the following entry: `A23I`
Return: 3.4

Enquiry: Please give measured protein stability index of the following entry: `R21T`
Return: 2.24

Enquiry: Please give measured protein stability index of the following entry: `F3D`
Return: 3.81

Enquiry: Please give measured protein stability index of the following entry: `G7Y`
Return: 3.02

Enquiry: Please give measured protein stability index of the following entry: `Q19P`
Return: 3.19

Enquiry: Please give measured protein stability index of the following entry: `S24I`
Return: 2.5

Enquiry: Please give measured protein stability index of the following entry: `R21E`
Return: 2.2

Enquiry: Please give measured protein stability index of the following entry: `T16F`
Return: 2.94

Enquiry: Please give measured protein stability index of the following entry: `A23Q`
Return: 3.27

Enquiry: Please give measured protein stability index of the following entry: `S24Y`
Return: 2.66

Enquiry: Please give measured protein stability index of the following entry: `A23P`
Return: 2.5

Enquiry: Please give measured protein stability index of the following entry: `G14N`
Return: 3.67

Enquiry: Please give measured protein stability index of the following entry: `T16Y`
Return: 3.72

Enquiry: Please give measured protein stability index of the following entry: `R15C`
Return: 2.66

Enquiry: Please give measured protein stability index of the following entry: `T20G`
Return: 1.9

Enquiry: Please give measured protein stability index of the following entry: `Q19N`
Return: 3.41

Enquiry: Please give measured protein stability index of the following entry: `S13M`
Return: 2.87

Enquiry: Please give measured protein stability index of the following entry: `R15T`
Return: 3.4

Enquiry: Please give measured protein stability index of the following entry: `G14F`
Return: 2.56

Enquiry: Please give measured protein stability index of the following entry: `K2C`
Return: 2.6

Enquiry: Please give measured protein stability index of the following entry: `T20M`
Return: 2.32

Enquiry: Please give measured protein stability index of the following entry: `Y12A`
Return: 4.58

Enquiry: Please give measured protein stability index of the following entry: `Y12R`
Return: 4.02

Enquiry: Please give measured protein stability index of the following entry: `Y12I`
Return: 3.69

Enquiry: Please give measured protein stability index of the following entry: `Q17F`
Return: 1.76

Enquiry: Please give measured protein stability index of the following entry: `T5H`
Return: 2.82

Enquiry: Please give measured protein stability index of the following entry: `T16V`
Return: 2.74

Enquiry: Please give measured protein stability index of the following entry: `Q19E`
Return: 2.69

Enquiry: Please give measured protein stability index of the following entry: `S8C`
Return: 2.04

Enquiry: Please give measured protein stability index of the following entry: `G14T`
Return: 3.81

Enquiry: Please give measured protein stability index of the following entry: `S8N`
Return: 2.89

Enquiry: Please give measured protein stability index of the following entry: `S13N`
Return: 3.95

Enquiry: Please give measured protein stability index of the following entry: `F3I`
Return: 3.32

Enquiry: Please give measured protein stability index of the following entry: `S24Q`
Return: 2.51

Enquiry: Please give measured protein stability index of the following entry: `G7V`
Return: 2.26

Enquiry: Please give measured protein stability index of the following entry: `L4G`
Return: 3.36

Enquiry: Please give measured protein stability index of the following entry: `S8Q`
Return: 2.78

Enquiry: Please give measured protein stability index of the following entry: `Q17L`
Return: 2.77

Enquiry: Please give measured protein stability index of the following entry: `T16G`
Return: 2.54

Enquiry: Please give measured protein stability index of the following entry: `R11C`
Return: 3.96

Enquiry: Please give measured protein stability index of the following entry: `R11L`
Return: 2.43

Enquiry: Please give measured protein stability index of the following entry: `S8V`
Return: 2.81

Enquiry: Please give measured protein stability index of the following entry: `F10W`
Return: 2.77

Enquiry: Please give measured protein stability index of the following entry: `S24W`
Return: 2.57

Enquiry: Please give measured protein stability index of the following entry: `G7L`
Return: 2.25

Enquiry: Please give measured protein stability index of the following entry: `S13Q`
Return: 3.04

Enquiry: Please give measured protein stability index of the following entry: `G14H`
Return: 3.57

Enquiry: Please give measured protein stability index of the following entry: `A18F`
Return: 2.44

Enquiry: Please give measured protein stability index of the following entry: `L4A`
Return: 2.98

Enquiry: Please give measured protein stability index of the following entry: `K1A`
Return: 2.2

Enquiry: Please give measured protein stability index of the following entry: `R15Y`
Return: 2.16

Enquiry: Please give measured protein stability index of the following entry: `R22D`
Return: 2.24

Enquiry: Please give measured protein stability index of the following entry: `S13V`
Return: 2.01

Enquiry: Please give measured protein stability index of the following entry: `Y12C`
Return: 2.54

Enquiry: Please give measured protein stability index of the following entry: `K2I`
Return: 2.54

Enquiry: Please give measured protein stability index of the following entry: `R11N`
Return: 2.63

Enquiry: Please give measured protein stability index of the following entry: `R22W`
Return: 1.41

Enquiry: Please give measured protein stability index of the following entry: `S13F`
Return: 2.67

Enquiry: Please give measured protein stability index of the following entry: `Q19D`
Return: 1.2

Enquiry: Please give measured protein stability index of the following entry: `R15G`
Return: 2.33

Enquiry: Please give measured protein stability index of the following entry: `A23Y`
Return: 2.13

Enquiry: Please give measured protein stability index of the following entry: `R22N`
Return: 1.87

Enquiry: Please give measured protein stability index of the following entry: `S13H`
Return: 2.68

Enquiry: Please give measured protein stability index of the following entry: `T5R`
Return: 3.06

Enquiry: Please give measured protein stability index of the following entry: `A23K`
Return: 3.81

Enquiry: Please give measured protein stability index of the following entry: `L4T`
Return: 3.11

Enquiry: Please give measured protein stability index of the following entry: `K2V`
Return: 2.23

Enquiry: Please give measured protein stability index of the following entry: `S8Y`
Return: 3.4

Enquiry: Please give measured protein stability index of the following entry: `T16Q`
Return: 2.94

Enquiry: Please give measured protein stability index of the following entry: `G7W`
Return: 1.52

Enquiry: Please give measured protein stability index of the following entry: `G14C`
Return: 2.06

Enquiry: Please give measured protein stability index of the following entry: `Q19W`
Return: 2.58

Enquiry: Please give measured protein stability index of the following entry: `R15V`
Return: 2.93

Enquiry: Please give measured protein stability index of the following entry: `Q17R`
Return: 2.95

Enquiry: Please give measured protein stability index of the following entry: `R22F`
Return: 2.05

Enquiry: Please give measured protein stability index of the following entry: `F10T`
Return: 3.54

Enquiry: Please give measured protein stability index of the following entry: `R22Y`
Return: 2.13

Enquiry: Please give measured protein stability index of the following entry: `Q17H`
Return: 3.25

Enquiry: Please give measured protein stability index of the following entry: `L6Q`
Return: 3.97

Enquiry: Please give measured protein stability index of the following entry: `G14W`
Return: 4.87

The values you see were collected from the supplement of paper PMC10567573.
